These data points were gathered from the Immune Epitope Database (IEDB).

Target: HLA-A*02:01
Experiment: IEDB peptide-MHC binding, purified MHC/competitive/radioactivity; bounds were set here for any values at or beyond the usual limits of such assays
Conditions: source organism: Vaccinia virus WR
measured.endpoint: IC50 (nM)
Express your answer in nM, writing the number without its unit.

Worked examples, 2 sequences total:
GIFCFRILL
7.8
TISGNIYSAL
1110

For the sequence WLTSILLSL , what IC50 is on record?
1.2

IC50 for FLHTTFIDV ?
0.46

Give its IC50 value. Item: GVLTIKAPNV
3880

I have this sequence here, IVMDNDDNI , and I need its recorded IC50.
445

Query (sequence): FLSLMSLSI ; field requested: IC50
3.5

What does the record list as IC50 for IIAIVFVFI ?
241

Sample KMHDVIAPA — what was its IC50?
2.6

# IC50 lookup, item FILTAILFFM
0.12

Value lookup for IC50; key = PVLEKKVCAI
1530

Fill blank: measured IC50 of the sequence TVPTNDHIPV is ____.
1670

Returns the measured IC50 for the input sequence. Input: KLLSTSNVIT
1120

Please give the measured IC50 for this sequence: YLFRIVSTV
1.2

// lookup IC50 for VIDEILFKV
1.3

Please give the measured IC50 for this sequence: VQLSNNKYV
1820

Dear colleague, I am looking for the recorded IC50 of the following sequence: YLPLSVFII
6.2

I'd like to know its IC50. The sequence in question is NTIAVITETI
108

So what's the measured IC50 for this one? LLNETAKVI
406

Param item = SAFNDDGIYI ; retrieve measured IC50.
35

Please report the recorded IC50 for SALMTLDDLA .
249

Form field: reported IC50 of GIFVDTMSI
3020

What IC50 value was documented for this sequence, NLDDVYSYI ?
3.8

----------
Parameter pIC50: see the listing below.
Molecular target: HLA-A*68:02
Assay: IEDB peptide-MHC binding, cellular MHC/competitive/fluorescence; bounds were set here for any values at or beyond the usual limits of such assays
Details: source organism: Hepacivirus hominis
In textbook form, pIC50 equals minus log to base ten of the concentration in mol/L.

Query the reported pIC50 for HLA-A*68:02; item: MLLIAQAEA
5.21

API: value(readout=pIC50, system=HLA-A*68:02) for record VMWKCLIRL
5.12

Item KLFPRLPGI with HLA-A*68:02 - pIC50?
4.40

Notebook entry, HLA-A*68:02 assay: pIC50 of MLVNGDDLVV = ?
5.05

So what pIC50 did LLLGLLLLCV get with HLA-A*68:02?
4.24

HLA-A*68:02 / pIC50 / VLQAGITRV : value?
4.45

----------
Biological target: HLA-A*02:03
Experiment: IEDB peptide-MHC binding, cellular MHC/competitive/fluorescence; bounds were set here for any values at or beyond the usual limits of such assays
Settings: source organism: Mammarenavirus machupoense
Let's look at some sequences and their measured IC50.
Report only the number, with the unit µM understood.

KSYFTNAAL
7.18
LNKSDSSWAV
5.25
YNCKCCWFA
31.9

Need IC50 of LNIALVAVSL , thanks.
12.5

Which IC50 is reported for this sequence? LNVSYLCHL
7.1

----------
Target: HLA-A*02:01
Test: IEDB peptide-MHC binding, purified MHC/competitive/radioactivity; bounds were set here for any values at or beyond the usual limits of such assays
Settings: source organism: Vaccinia virus WR
measured.endpoint: IC50 (nM)
// return numeric value only (unit: nM, not printed)

Recorded IC50, per entry:
NTTTFITVLT
559
TLDTAIFTDA
50
FLPIIFDAFL
0.22
ILYMVVDGSV
107
GMLFVNDLM
467

Fill blank: measured IC50 of the sequence IVFNLPVSKV is ____.
53

Requested field: IC50. Item: TIILNKIVQL
86

Could you share which IC50 value was measured for KIFETIYYGA ?
604

Would you mind telling me what IC50 value was observed for NIHSEMYSL ?
580

Need IC50, item NLETYTRPEI
1220

----------
Each entry below carries its recorded IC50.
Target: HLA-A*02:01
Assay: IEDB peptide-MHC binding, purified MHC/competitive/radioactivity; bounds were set here for any values at or beyond the usual limits of such assays
Conditions: source organism: Vaccinia virus WR
The reply should read as a number followed by its unit.

What measured IC50 is associated with SLVEMMWDL on HLA-A*02:01?
11 nM

Item VMDNDDNIL with HLA-A*02:01 - IC50?
719 nM

What value of IC50 on HLA-A*02:01 does VLIAGIILLI have?
89 nM

Any idea what IC50 came out for FIISVISLV on HLA-A*02:01?
0.91 nM

# returns recorded IC50 (system: HLA-A*02:01) for YLPKQPEGV
1.2 nM

Find the measured IC50: item TIMGVIFLI , target or system HLA-A*02:01.
9.6 nM

# value lookup — system HLA-A*02:01, readout IC50, item GLDLENLYAV
3.5 nM

----------
Target: HLA-A*02:01
Assay: IEDB peptide-MHC binding, cellular MHC/competitive/fluorescence; bounds were set here for any values at or beyond the usual limits of such assays
Conditions: source organism: Mammarenavirus choriomeningitidis
measured.endpoint: pIC50
Kindly note that pIC50 refers to -log10 of the concentration in mol/L and answer with the value alone.

Some entries whose results are on file:
HNASDFYGL
4.81
SCDDVVFGI
5.25
LNQTVYSLV
5.03

Requested read-out: pIC50. Entry: LSYSQTMLL
5.08

Need pIC50, item FSLGAAVKA
4.96

For SNSEDLLKAV , what is its reported pIC50?
5.11

So what does the record say about pIC50 for LNMFVSDQV ?
5.24

Field request: pIC50 | item: ALMDCIIFES
5.21

# pIC50 lookup, item GTMPSLTMAC
4.46

----------
Biological target: HLA-A*02:06
Test: IEDB peptide-MHC binding, purified MHC/competitive/radioactivity; bounds were set here for any values at or beyond the usual limits of such assays
Conditions: source organism: Vaccinia virus WR
Collected IC50 values appear next to each entry.
// units = nM; emit number, no label

// known answers, use as guide
TIAVSVYGA
99
AVANCVRNL
1380
SLFIESSICL
982
MLLNVQTLI
0.22
QTVDFTDCRT
3640

Lab note: next sequence to report on.
Entry IISTDQDTML has what IC50?
666

----------
Target: HLA-A*68:02
Test: IEDB peptide-MHC binding, purified MHC/competitive/radioactivity; bounds were set here for any values at or beyond the usual limits of such assays
Conditions: source organism: Vaccinia virus WR
measured.endpoint: pIC50
Keep it numeric: pIC50 is minus log10 of the concentration in mol/L.

Example sequences with recorded pIC50:
IAIFNNRNL
6.58
YAAEMVEYL
7.89
WLRAKRKPAM
5.54
STKADAVVA
6.09
RTIDAINKCV
6.54

Fill in the blank: the reported pIC50 of IAVSVYGAI is ____.
8.11

Which pIC50 is listed for IISYIILFI ?
8.24

Given the entry YVSPTEMVDV , report its measured pIC50.
6.63

// returns reported pIC50 for input FAISYCRAFI
8.77

Sample DITNILGGV — what was its pIC50?
7.92

Report pIC50 for ALYYVHSLL please.
6.22

Which value of pIC50 has been reported for YAGTIKESL in the records?
6.44

Consider the sequence shown here: SAEVERLMEL What is its recorded pIC50?
5.58

Any idea what pIC50 was measured for DQTHIKTIAV ?
6.39

----------
Entries and their IC50 values follow.
Molecular target: HLA-A*02:06
Experiment: IEDB peptide-MHC binding, purified MHC/competitive/radioactivity; bounds were set here for any values at or beyond the usual limits of such assays
Conditions: source organism: Vaccinia virus WR
Could you write the number and then its unit?

Would you please look over these solved cases?
IIGEPIIVA
1350 nM
DISSFYWSL
3970 nM
GMSIVCIVAA
1220 nM

Entry IAGLKIEEI : reported IC50 = ?
1970 nM

Item TTNNLLEQL has what recorded IC50?
3040 nM

Using the record for ALALEQYGI , report its IC50.
548 nM

Looking for the measured IC50 of NMDWRSLTQV , can you help?
1.7 nM

What value of IC50 has been recorded for this entry: SALMTLDDL
100 nM

If you can, please state the reported IC50 value of ETIEILRNYL .
0.28 nM

Looking for the measured IC50 of WLKDSAIMV , can you help?
2280 nM

Any idea what IC50 was measured for DLLLPSTDV ?
1060 nM

I'd like to know its IC50. The sequence in question is KIKQTGINNV
2550 nM

Give its IC50 value. Item: SILSLETVKM
806 nM

Would you kindly share the measured IC50 for RIKSVLDII ?
2080 nM

Returns the measured IC50 for the input sequence. Input: SLVYGIRCV
168 nM

Record request: IC50 value, item EISSNDNAKI
162 nM

Item under review: GARVIWMDA . Reported IC50?
2140 nM

Consider the sequence TLFGRGVIDT and give its measured IC50.
3310 nM

If you can, please state the reported IC50 value of KVTGSYNLV .
193 nM
